Biological target: ROCK2 (Homo sapiens (Human), UniProt O75116)
Sequence (O75116 11-552): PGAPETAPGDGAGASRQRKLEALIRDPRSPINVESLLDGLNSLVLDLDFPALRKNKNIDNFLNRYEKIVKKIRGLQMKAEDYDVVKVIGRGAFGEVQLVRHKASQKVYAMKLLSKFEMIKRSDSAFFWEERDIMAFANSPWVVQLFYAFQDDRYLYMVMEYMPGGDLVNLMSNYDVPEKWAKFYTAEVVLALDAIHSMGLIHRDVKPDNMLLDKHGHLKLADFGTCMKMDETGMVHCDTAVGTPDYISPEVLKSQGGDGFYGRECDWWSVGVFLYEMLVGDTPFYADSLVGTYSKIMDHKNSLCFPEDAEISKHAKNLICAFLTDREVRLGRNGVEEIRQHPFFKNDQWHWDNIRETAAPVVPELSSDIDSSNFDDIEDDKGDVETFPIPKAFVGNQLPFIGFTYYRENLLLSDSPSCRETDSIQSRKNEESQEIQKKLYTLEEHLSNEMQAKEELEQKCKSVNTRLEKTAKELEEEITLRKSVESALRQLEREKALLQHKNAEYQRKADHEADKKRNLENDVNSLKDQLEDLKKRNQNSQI
Assay: Rho Kinase Inhibition Assay (IMAP fluorescence polarization)
Conditions: isolated enzyme, 10 μM ATP, 60 minutes at room temperature
pIC50: −log10 of the molar value.
quantityName: pIC50

Look over these answered cases.
molecule: Clc1ccc(CN2CCC(Nc3cccc4cnccc34)C2)cc1Cl (stereo not shown) [Compound 2.016]
pIC50: 6.15

molecule: c1cc(N[C@@H]2CCN(Cc3ccc(C4CC4)cc3)C2)c2ccncc2c1 [Compound 2.022]
pIC50: 6.51

molecule: C[C@@H](O)COc1cccc(CN2CCC[C@@H](Nc3ccc4[nH]ncc4c3)C2)c1 [Compound 1.116]
pIC50: 6.06

molecule: COc1ccccc1CN1CCCC(Nc2ccc3[nH]ncc3c2)C1 (stereo not shown) [Compound 1.067]
pIC50: 5.73

A: c1cc(NC2CCCN(Cc3ccc(C4CC4)cc3)C2)c2ccncc2c1 (stereo not shown) [Compound 2.010]
B: c1cc2cc(CN3CCCC(Nc4ccc5[nH]ncc5c4)C3)ccc2s1 (stereo not shown) [Compound 1.054]
C: OCCOc1cccc(CN2CCCC(Nc3ccc4[nH]ncc4c3)C2)c1 (stereo not shown) [Compound 1.039]
D: C=Cc1ccc(CN2CCCC(Nc3ccc4[nH]ncc4c3)C2)cc1 (stereo not shown) [Compound 1.037]
Incoming: Arrange these 4 molecules in increasing order of pIC50. Give the labels in the order specified.
Outgoing: A, C, B, D
(A: 5.91, C: 6.48, B: 6.88, D: 7.16)

P: CS(=O)(=O)Nc1cccc(CN2CCCC(Nc3ccc4[nH]ncc4c3)C2)c1 (stereo not shown) [Compound 1.051]
Q: c1cc2ccc(CN3CCCC(Nc4ccc5[nH]ncc5c4)C3)cc2[nH]1 (stereo not shown) [Compound 1.082]
Incoming: Between the entries labelled P and Q , which has a larger pIC50 value on record? Use the label to indicate which entry you chose.
Outgoing: Q
(Q: 7.52, P: 7.20)

Each recorded value in this set is attributed to patent US8604218B2.
